Heads up, these compounds all have pIC50 values measured for CDK2 (UniProt P24941).
// pIC50 here means minus log10 of the molar concentration (mol/L)

O=C1Nc2ccc(S(=O)(=O)N3CCc4cc(Br)ccc43)cc2/C1=C/c1[nH]cc2c1CCOC2=O = 5.54
Cc1cccc2c1/C(=C/c1[nH]cc3c1CCOC3=O)C(=O)N2 = 6.57
O=C1Nc2ccc(-c3cccc(C(=O)O)c3)cc2/C1=C/c1[nH]cc2c1CCOC2=O = 5.17

Specify pIC50 for O=C1Nc2cc(Cl)ccc2/C1=C/c1[nH]cc2c1CCNC2=O and stop.
5.14

---

As shown below, each of these compounds has a reported pIC50 value.
- studyTarget: UniProtKB P24941
- experimentSummary: Enzyme Assay
pIC50: −log10 of the molar value.

Here are 2 compounds together with their reported answers.
COc1cccc(-c2ccc3c(c2)NC(=O)/C3=C\c2[nH]cc3c2CCOC3=O)c1 = < 5.00
NS(=O)(=O)c1ccc2c(c1)/C(=C/c1[nH]cc3c1CCNC3=O)C(=O)N2 = > 8.30

Specify pIC50 for O=C1Nc2cc(-c3ccccc3)ccc2/C1=C/c1[nH]cc2c1CCOC2=O and stop.
< 5.00
